Consider the following compounds; for each one, report its growth.
# System: 786-0 renal
# testDescription: NCI-60 one-dose screen, 48 h (100 = growth as untreated, 0 = no growth, -100 = all killed)
# cond: 10 µM unless noted
About 83,000 compounds went through this panel and 20% of them were active in at least one assay; those are over-represented in the sample as a whole.
Answers are plain numbers, in %.

Some entries whose results are on file:
NS(=O)(=O)c1ccc(C(=O)NN2C(=O)c3c(Br)c(Br)c(Br)c(Br)c3C2=O)cc1 :: 103
COc1cccc(-c2cc(-c3cccc(Cl)c3)c(C#N)c(=O)[nH]2)c1 :: 88.8
CCN(CC)CCN1C(=O)c2c(c(C)c3c(oc4ccc(OC)cc43)c2C)C1=O :: -30
COc1ccc(N2CCN(C(=O)c3sc4nc(C)c(Br)c(C)c4c3N)CC2)cc1 :: 99.7
COc1ccc(-c2nc(/C=C3\C(=O)N(C)c4ccccc43)c3ccccn23)cc1 :: 38.3
C#Cc1cccc(Nc2nc(C)nc3cc(NC(=O)CCl)ccc23)c1 :: -72.5
COc1ccc(Cn2cc3c(c2-c2ccccc2)CCc2cnoc2-3)cc1 :: 19.4
CC(=O)/C(=C/c1ccc([N+](=O)[O-])cc1)C(=O)c1ccccc1 :: 92.5

// below: growth requested for another compound
Asked: Short answer please: growth, 786-0 renal, entry "CN(C)S(=O)(=O)Oc1ccc(-c2sc3cc(OS(=O)(=O)N(C)C)ccc3c2C(=O)c2ccc(OCCN3CCCCC3)cc2)cc1"
Given back: 21.5

###

# Test system: UACC-257 melanoma
# testDescription: NCI-60 one-dose screen, 48 h
# cond: 10 µM unless noted
# Description: Cells are grown in 96 well plates and exposed to the test compound for 48 hours. Compounds are tested at a single concentration, which is 10^-5 M for most compounds. The reported endpoint is percent growth (GI% or GIPRCNT), where numbers from 0 - 100% represent growth inhibition, and numbers from -100% - 0 represent cell death. For example, a value of 40 represents 60% growth inhibition. A value of 0 means no net growth occurred over the course of the experiment. […]
About 83,000 compounds went through this panel and 20% of them were active in at least one assay; those are over-represented in the sample as a whole. Active and inactive are the calls of the source. Rule for the calls: active = growth percent below 10; inactive = the rest.
The categories you may choose from are y for active, n for inactive

Use the examples below as a reference point.
CCOC(=O)CC1CSC(Nc2ccccc2)=N1 (stereo not given) :: n
Cn1c(=O)c2[nH]c(SCC(=O)Nc3ccc(C(=O)/C=C/c4ccccc4Cl)cc3)nc2n(C)c1=O :: n
Cc1ccc(-c2nc3nc(-c4ccccc4)nc(N4CCCN(S(C)(=O)=O)CC4)c3o2)cc1 :: n

Asked: Lab log entry: "NC1=Nc2cc(OCCCCN3Cc4ccccc4C3)c(OCC3CC3)cc2C12CCCC2" — outcome as called in the assay?
Given back: y

Asked: // next record "Cc1nnc(-c2ccc3c(c2)nc(/C=C/c2ccccc2)n3C2CCCCC2)o1"
Given back: n

###

# Test system: ACHN renal
# testDescription: NCI-60 one-dose screen, 48 h
# cond: 10 µM unless noted
About 83,000 compounds went through this panel and 20% of them were active in at least one assay; those are over-represented in the sample as a whole. Calls of active or inactive are those of the source. The calls were made as follows: active = growth percent below 10; inactive = the rest.
The categories you may choose from are active, inactive

Use the examples below as a reference point.
CCN(CC)CCCOc1ccc2ncnc(Nc3ccc(Oc4cccc(C(F)(F)F)c4)c(Cl)c3)c2c1 :: active
CC1=C(CCC(C)NCc2ccc(OCCCN3CCCCC3)cc2)C(C)(C)CCC1 (stereo not given) :: active
CNC1=CC(=O)c2c(C(=O)OC)c(C)[n+]([O-])c(C)c2C1=O :: inactive
CCS/C(Nc1ccccc1)=C(\C#N)C(=O)Nc1ccc(OC)cc1 :: inactive

We now examine a further compound.
Asked: Lab log entry: "CSC1=Nc2c(c(C)c(-c3ccccc3)n2CCCC(=O)O)C2=NC(=O)C[C@H](C)N12" — outcome as called in the assay?
Given back: inactive

###

# Tested on: NCI-H322M lung
# testDescription: NCI-60 one-dose screen, 48 h
# cond: 10 µM unless noted
Compounds without any hit were thinned out: in the full panel of roughly 83,000, 20% have a hit. The source made the active and inactive calls. How the source made its calls: active means growth percent below 10; inactive means the rest.
The categories you may choose from are active, inactive

Use the examples below as a reference point.
C=C1C(=O)O[C@H]2[C@H]1CC/C(COC(=O)/C=C\C(=O)NCc1ccc(Cn3c(=O)sn(CCCl)c3=O)cc1)=C\CC[C@@]1(C)O[C@@H]21 :: inactive
CCS/C(Nc1ccccc1)=C(\C#N)C(=O)Nc1ccc(OC)cc1 :: inactive
CN(Cc1cc(Br)cc(Br)c1O)Cc1cc(Br)cc(Br)c1O :: inactive

Asked: Lab log entry: "O=C(N/N=C\c1ccccc1S(=O)(=O)O)N/N=C/c1ccccc1S(=O)(=O)O" — outcome as called in the assay?
Given back: inactive

Asked: // next record "NNCCc1ccc(NC(=O)CCCc2ccc(C(=O)Nc3ccccc3N)cc2)cc1"
Given back: inactive

###

# Tested on: BT-549 breast
# testDescription: NCI-60 one-dose screen, 48 h
# cond: 10 µM unless noted
Compounds without any hit were thinned out: in the full panel of roughly 83,000, 20% have a hit. Active and inactive are the calls of the source. Rule for the calls: active = growth percent below 10; inactive = the rest.
The categories you may choose from are 1 = active, -1 = inactive

Use the examples below as a reference point.
C/C(=N\O)c1ccc(NC(=O)CSc2nnc(-c3cc(-c4ccc(S(N)(=O)=O)cc4)nc4ccccc34)n2-c2ccccc2)cc1 :: -1
CCN1C(=O)N(CC)C2C1NN=c1s/c(=C\c3cnc(C)n3C)c(=O)n12 (configuration not stated) :: -1
CCCCNc1cc(-c2cn[nH]c2-c2cc(C)cc(OC)c2)nc(-c2cccnc2)n1 :: -1
Cc1ccc(-c2nc(SCc3nc4cc(Cl)c(Cl)cc4[nH]3)[nH]c(=O)c2C#N)cc1 :: -1
Oc1c(CN2CCC(N3CCCCC3)CC2)cc(Cc2cc(CN3CCC(N4CCCCC4)CC3)c(O)c3ncccc23)c2cccnc12 :: -1
COc1ccc(N2CCN(C(=O)c3sc4nc(C)c(Br)c(C)c4c3N)CC2)cc1 :: -1
CCN1C(=O)N(CC)C2C1NN=c1s/c(=C\c3ccc(C(F)(F)F)cc3)c(=O)n12 (configuration not stated) :: 1
Cc1ccc2c(-n3nc(C#N)c(C#N)c3N)cc(=O)[nH]c2c1 :: -1

Asked: Lab log entry: "CC(=C(c1ccc(OCCN2CCCCC2)cc1)c1ccc(OCCN2CCCCC2)cc1)c1ccc(Cl)cc1" — outcome as called in the assay?
Given back: 1

Asked: // next record C=CCOC(=O)C1=C(C)N(CC)C(=O)NC1c1c(Cl)n(C)c2ccccc12 (configuration not stated)
Given back: -1

Asked: // next record "C=C1C(=O)O[C@H]2[C@H]1CC/C(COC(=O)/C=C\C(=O)NCc1ccc(Cn3c(=O)sn(CCCCC)c3=O)cc1)=C\CC[C@@]1(C)O[C@@H]21"
Given back: -1

Asked: // next record "C=C1C(=O)O[C@H]2[C@H]1CC/C(COC(=O)c1cc3cc(Cl)ccc3[nH]1)=C\CC[C@@]1(C)O[C@@H]21"
Given back: 1

Asked: // next record "S=c1nc2oc(-c3ccccc3)c(-c3ccccc3)c2c(/N=C\c2ccco2)[nH]1"
Given back: -1

Asked: // next record "O=C(CCCCCNC(=O)c1cc(=O)c(O)co1)Nc1ccccc1"
Given back: -1

Asked: // next record "N#C/C(=C\c1cn(Cc2ccccc2)c2ccccc12)C(=O)Nc1ncc(Cc2ccccc2Cl)s1"
Given back: -1

Asked: // next record "COc1ccc(-c2nc(-c3cn(C)c4ncccc34)cs2)cc1"
Given back: 1

Asked: // next record "O=C1/C(=C/c2ccccc2F)CN(C(=O)C(Cl)Cl)C/C1=C\c1ccccc1F"
Given back: 1

###

# Test system: OVCAR-3 ovarian
# testDescription: NCI-60 one-dose screen, 48 h (100 = growth as untreated, 0 = no growth, -100 = all killed)
# cond: 10 µM unless noted
The panel holds about 83,000 compounds, 20% with a hit somewhere; the sample as a whole holds those more often.
Classification field: enter label 1 for growth values not below 80%, label 0 for values below it.

OCCNCCNC(Cc1ccc(Cl)cc1)c1ccccc1 (stereo unspecified) :: label 1
CN(C)CCCC1(c2ccc(F)cc2)OCc2cc(-c3ccc4cc[nH]c4c3)ccc21 (stereo unspecified) :: label 0
CC1=CC(c2ccco2)=C2C(N)=NNC2N1 (stereo unspecified) :: label 1
N#C/C(=C\c1ccc([N+](=O)[O-])cc1)n1nnc2cc(F)c(F)cc21 :: label 0
NC(=O)c1c(NC(=O)c2cccs2)sc2c1CCC(=O)C2 :: label 0

We now examine a further molecule.
Asked: Dear colleague, could you confirm whether "COc1cccc(/C=C/C(=O)c2cccc(Nc3nc(Nc4ccccc4)nc(Nc4ccccc4)n3)c2)c1" has growth at or above 80%?
Given back: label 0
